Hi there, I'd appreciate the recorded % ACh @ 10 μM Oocyte for every entry that follows.
Target: human α7 nAChRs transiently expressed in Xenopus laevis oocytes (Homo sapiens (Human), UniProt P36544)
Sequence (P36544 23-502 limits assumed): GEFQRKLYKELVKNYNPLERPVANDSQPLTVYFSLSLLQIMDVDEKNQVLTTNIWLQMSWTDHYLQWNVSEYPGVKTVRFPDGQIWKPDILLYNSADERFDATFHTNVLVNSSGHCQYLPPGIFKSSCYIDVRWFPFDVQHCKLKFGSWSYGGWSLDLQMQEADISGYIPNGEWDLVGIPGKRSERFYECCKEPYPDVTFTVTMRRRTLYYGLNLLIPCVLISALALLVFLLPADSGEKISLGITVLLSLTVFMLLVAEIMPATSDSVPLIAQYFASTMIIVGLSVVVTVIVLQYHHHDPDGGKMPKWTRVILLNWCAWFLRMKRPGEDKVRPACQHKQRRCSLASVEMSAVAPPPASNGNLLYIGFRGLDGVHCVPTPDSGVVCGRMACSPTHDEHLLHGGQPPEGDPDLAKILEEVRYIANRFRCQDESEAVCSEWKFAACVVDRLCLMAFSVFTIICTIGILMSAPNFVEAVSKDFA
Assay: Oocyte electrophysiology screen (TEVC)
Format: cell-based
Details: 0.01 mM test compound, peak current relative to 0.2 mM ACh; hydrochloride
Where a name gives a salt, the structure may show the parent alone.
// unit must come after the numeric part

Item under review: COc1ccc2cc(C(=O)NC3C4CCN(CC4)C34CC4)sc2c1 (single isomer, unassigned; enantiomer2) [73b, hydrochloride] . Reported % ACh @ 10 μM Oocyte?
1 % ACh

# get_value(readout='% ACh @ 10 μM Oocyte', item= Cc1ccc2sc(C(=O)NC3C4CCN(CC4)C34CC4)cc2c1 (single isomer, unassigned; enantiomer2) [69b, hydrochloride] )
1 % ACh

What % ACh @ 10 μM Oocyte value was documented for this compound, CC1(C)C(NC(=O)c2cc3ccccc3s2)C2CCN1CC2 (single isomer, unassigned; enantiomer1) [1a, hydrochloride] ?
1470 % ACh

----------
Please respond with reported % ACh @ 10 μM Oocyte for every item in the list.
Target: human α7 nAChRs transiently expressed in Xenopus laevis oocytes (Homo sapiens (Human))
Assay: Oocyte electrophysiology screen (TEVC)
Assay type: cell-based
Conditions: 0.01 mM test compound, peak current relative to 0.2 mM ACh
Structures can show the parent of a compound that is named as a salt.
The figure you give is taken to be in % ACh; do not add the unit.

Fill blank: measured % ACh @ 10 μM Oocyte of the compound O=C(N[C@@H]1C2CCN(CC2)C12CC2)c1cc2ccc(Cl)c(Cl)c2s1 [(R)-150, hydrochloride] is ____.
443

// query % ACh @ 10 μM Oocyte value for entry O=C(N[C@@H]1C2CCN(CC2)C12CC2)c1ccc2occc2n1 [(R)-90, hydrochloride]
3

Give the measured % ACh @ 10 μM Oocyte of O=C(NC1C2CCN(CC2)C12CC2)c1ccc2occc2c1 (single isomer, unassigned; enantiomer2) [59b] .
27

Which % ACh @ 10 μM Oocyte reading was recorded for the compound CC1(C)[C@H](NC(=O)c2cnc3occc3c2)C2CCN1CC2 [(R)-36, hydrochloride] ?
1

Report % ACh @ 10 μM Oocyte for O=C(NC1C2CCN(CC2)C12CC2)c1cc2cc(Cl)c(Cl)cc2s1 (single isomer, unassigned; enantiomer1) [67a, hydrochloride] please.
1

Quick check: % ACh @ 10 μM Oocyte of CC(C)Oc1ccc2cc(C(=O)N[C@@H]3C4CCN(CC4)C34CC4)sc2c1 [(R)-102, hydrochloride] ?
1

Form field: reported % ACh @ 10 μM Oocyte of COc1ccc2cc(C(=O)N[C@@H]3C4CCN(CC4)C3(C)C)sc2c1 [(R)-20, hydrochloride]
558

----------
Kindly state pKi for each of the entries shown.
Biological target: UniProtKB P46098
Sequence (P46098 24-478): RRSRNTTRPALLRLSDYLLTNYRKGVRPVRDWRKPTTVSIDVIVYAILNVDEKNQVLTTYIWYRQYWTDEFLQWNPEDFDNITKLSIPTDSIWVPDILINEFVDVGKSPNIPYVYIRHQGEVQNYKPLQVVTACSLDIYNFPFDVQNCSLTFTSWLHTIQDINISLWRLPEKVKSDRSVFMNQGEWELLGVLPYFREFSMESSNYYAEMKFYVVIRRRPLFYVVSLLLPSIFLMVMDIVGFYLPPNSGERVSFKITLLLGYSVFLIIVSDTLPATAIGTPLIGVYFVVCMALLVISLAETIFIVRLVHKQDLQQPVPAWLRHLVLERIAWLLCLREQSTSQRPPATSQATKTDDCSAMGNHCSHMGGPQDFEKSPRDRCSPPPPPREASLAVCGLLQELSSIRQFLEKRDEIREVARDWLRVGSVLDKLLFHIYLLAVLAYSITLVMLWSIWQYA
Assay: [3H]BRL 43694 competition binding
Conditions: CHO cell membranes, [3H]BRL 43694, Cheng Prusoff; read-out: h-5HT3 Ki
Counter-ions that a name gives are not always drawn.
Remember, pKi is on a log scale: it is -log10 of the molar concentration.

Report pKi for CC(C)Oc1cccc2cc(C(=O)N[C@@H]3C4CCN(CC4)C34CC4)sc12 [(R)-191, hydrochloride] tested on UniProtKB P46098.
6.80

Recorded pKi for Cc1cccc2cc(C(=O)N[C@@H]3C4CCN(CC4)C3(C)C)sc12 [(R)-126, hydrochloride] with UniProtKB P46098, please?
6.77

Entry CC1(C)[C@H](NC(=O)c2ccc3ccsc3c2)C2CCN1CC2 [(R)-5, hydrochloride] , system UniProtKB P46098: what pKi was measured?
5.72

Could you share what pKi was measured for CC1(C)[C@H](NC(=O)c2cc3cccc(C(F)(F)F)c3s2)C2CCN1CC2 [(R)-7, hydrochloride] , tested on UniProtKB P46098?
5.47

What pKi appears in the records for this compound with UniProtKB P46098? O=C(N[C@@H]1C2CCN(CC2)C12CC2)c1cc2cccc(-c3ccccc3)c2s1 [(R)-186, hydrochloride]
7.52

Can you look up pKi on UniProtKB P46098 for O=C(N[C@@H]1C2CCN(CC2)C12CC2)c1ccc2occc2c1 [(R)-59, hydrochloride] ?
5.17

Give UniProtKB P46098 pKi for Cc1csc2cc(C(=O)N[C@@H]3C4CCN(CC4)C34CC4)ccc12 [(R)-78, hydrochloride]
5.68

Query the reported pKi for UniProtKB P46098; item: Cc1ccc2sc(C(=O)N[C@@H]3C4CCN(CC4)C3(C)C)cc2c1 [(R)-16, hydrochloride]
5.60

Short answer please: pKi, UniProtKB P46098, entry O=C(N[C@@H]1C2CCN(CC2)C12CC2)c1cc2ccoc2cn1 [(R)-75, hydrochloride]
5.48

State its pKi on UniProtKB P46098: COc1cccc2cc(C(=O)N[C@@H]3C4CCN(CC4)C34CC4)sc12 [(R)-161, hydrochloride]
6.18

Cited source for all entries: patent US10183938B2
